For each record, write down the corresponding inhibition of SARS-CoV-2 cytopathic effect.
- System: Vero E6 infected with SARS-CoV-2
- test: inhibition of SARS-CoV-2 cytopathic effect; higher = more antiviral protection, active = above 15
- conditionParameters: 1 nM; 48 h

Report inhibition of SARS-CoV-2 cytopathic effect from Vero E6 infected with SARS-CoV-2 testing of C#Cc1cnc2nc(O)n(C(CC)CC)c2n1
1.57% (inactive)

Report inhibition of SARS-CoV-2 cytopathic effect from Vero E6 infected with SARS-CoV-2 testing of Cc1cnc(CNC(=O)c2c(=O)c3ccc(N4CCCN(C)CC4)nc3n3c2sc2ccccc23)cn1
0.83% (inactive)

Report inhibition of SARS-CoV-2 cytopathic effect from Vero E6 infected with SARS-CoV-2 testing of COc1cc2ncc(-c3ccccc3)nc2cc1OC
1.41% (inactive)

Report inhibition of SARS-CoV-2 cytopathic effect from Vero E6 infected with SARS-CoV-2 testing of COC(=O)N[C@H](C(=O)N1CC2(CC2)C[C@H]1c1nc(-c2ccc3c(c2)C(F)(F)c2cc(-c4ccc5[nH]c([C@@H]6[C@H]7CC[C@H](C7)N6C(=O)[C@@H](NC(=O)OC)C(C)C)nc5c4)ccc2-3)c[nH]1)C(C)C
-1% (inactive)

Report inhibition of SARS-CoV-2 cytopathic effect from Vero E6 infected with SARS-CoV-2 testing of Cc1c(F)cc(C(=O)NC2CC2)cc1-c1c(F)cn2c(C(C)(C)C)nnc2c1F
-1.55% (inactive)

Report inhibition of SARS-CoV-2 cytopathic effect from Vero E6 infected with SARS-CoV-2 testing of CCCCCCCC/C=C/C(=O)O [trans-2-undecenoic-acid]
0.16% (inactive)

Report inhibition of SARS-CoV-2 cytopathic effect from Vero E6 infected with SARS-CoV-2 testing of C=CCNc1c(O)cc2c(O)c1C[C@@H](C)C[C@H](OC)[C@H](O)[C@@H](C)/C=C(\C)[C@H](OC(N)=O)[C@@H](OC)/C=C\C=C(/C)C(=O)N2
2.45% (inactive)

Report inhibition of SARS-CoV-2 cytopathic effect from Vero E6 infected with SARS-CoV-2 testing of NCC(=O)O
1.39% (inactive)

Report inhibition of SARS-CoV-2 cytopathic effect from Vero E6 infected with SARS-CoV-2 testing of CC1(C)O[C@@H]2C[C@H]3[C@@H]4C[C@H](F)C5=CC(=O)C=C[C@]5(C)[C@H]4[C@@H](O)C[C@]3(C)[C@]2(C(=O)CO)O1 [flunisolide]
-0.25% (inactive)

Report inhibition of SARS-CoV-2 cytopathic effect from Vero E6 infected with SARS-CoV-2 testing of CC(=O)[C@H]1CC[C@H]2[C@@H]3CC[C@H]4C[C@](C)(O)CC[C@]4(C)[C@H]3CC[C@]12C
-0.23% (inactive)

Report inhibition of SARS-CoV-2 cytopathic effect from Vero E6 infected with SARS-CoV-2 testing of O=C(O)CCCCCCNC1c2ccccc2CCc2ccccc21
-0.8% (inactive)

Report inhibition of SARS-CoV-2 cytopathic effect from Vero E6 infected with SARS-CoV-2 testing of Cc1cc(C(=O)NOCCO)c(Nc2ccc(I)cc2F)n(C)c1=O
-2.17% (inactive)

Report inhibition of SARS-CoV-2 cytopathic effect from Vero E6 infected with SARS-CoV-2 testing of CC(C)(C)NCC(O)COc1cc(Cl)ccc1Cl (configuration not stated)
-3.31% (inactive)

Report inhibition of SARS-CoV-2 cytopathic effect from Vero E6 infected with SARS-CoV-2 testing of N#Cc1cnc2c(Cl)cc(NCc3cn(CCN4CCCCCC4)nn3)cc2c1Nc1ccc(F)c(Cl)c1
-0.74% (inactive)

Report inhibition of SARS-CoV-2 cytopathic effect from Vero E6 infected with SARS-CoV-2 testing of O=C(C1CC1)N1CC[C@@H](Cc2n[nH]c(=O)n2-c2ccc(-c3ccc4occc4c3)cc2)C1
-1.12% (inactive)

Report inhibition of SARS-CoV-2 cytopathic effect from Vero E6 infected with SARS-CoV-2 testing of Nc1c(CC(=O)O)cccc1C(=O)c1ccc(Br)cc1
-1.88% (inactive)

Report inhibition of SARS-CoV-2 cytopathic effect from Vero E6 infected with SARS-CoV-2 testing of Oc1ncnc2[nH]ncc12
-15.3% (inactive)

----------
- System: Vero E6 infected with SARS-CoV-2
- test: inhibition of SARS-CoV-2 cytopathic effect; higher = more antiviral protection, active = above 15
- conditionParameters: 833.33 nM; 48 h
quantityMeasured: inhibition of SARS-CoV-2 cytopathic effect

Tell me its inhibition of SARS-CoV-2 cytopathic effect given NC[C@@](O)(c1ccc(Cl)cc1)c1ccc(-c2cn[nH]c2)cc1 as the entry.
-3.57% (inactive)

Tell me its inhibition of SARS-CoV-2 cytopathic effect given CCOC(=O)[C@H](CCc1ccccc1)N[C@@H](C)C(=O)N(CC(=O)O)C1Cc2ccccc2C1 as the entry.
2.28% (inactive)

Tell me its inhibition of SARS-CoV-2 cytopathic effect given COc1cc(OCc2cccc(-c3ccccc3)c2C)cc(OC)c1CN1CCCC[C@H]1C(=O)O as the entry.
0.14% (inactive)

Tell me its inhibition of SARS-CoV-2 cytopathic effect given COc1ccc(C(CN(C)C)C2(O)CCCCC2)cc1 (stereo not given) as the entry.
-0.35% (inactive)

Tell me its inhibition of SARS-CoV-2 cytopathic effect given CC1CCN(C(c2ccc(F)cc2)c2ccc(C(C)C(=O)O)cc2-c2ccc(C(F)(F)F)cc2)CC1 (stereo not given) as the entry.
-0.11% (inactive)

----------
For each record, write down the corresponding inhibition of SARS-CoV-2 cytopathic effect.
- System: Vero E6 infected with SARS-CoV-2
- test: inhibition of SARS-CoV-2 cytopathic effect; higher = more antiviral protection, active = above 15
- conditionParameters: 8.33 nM; 48 h

Tell me its inhibition of SARS-CoV-2 cytopathic effect given CC1=C(C(=O)O)N2C(=O)[C@@H](NC(=O)[C@H](N)C3=CCC=CC3)[C@H]2SC1 [cephradine] as the entry.
-1.94% (inactive)

Tell me its inhibition of SARS-CoV-2 cytopathic effect given CCC(=O)NCC[C@@H]1CCc2ccc3c(c21)CCO3 [ramelteon] as the entry.
-0.74% (inactive)

Tell me its inhibition of SARS-CoV-2 cytopathic effect given CC(C)C1=C2[C@H]3CC[C@@H]4[C@@]5(C)CC[C@H](OC(=O)CC(C)(C)C(=O)O)C(C)(C)[C@@H]5CC[C@@]4(C)[C@]3(C)CC[C@@]2([C@@H](O)CN(CCN(C)C)Cc2ccc(Cl)cc2)CC1=O as the entry.
1.17% (inactive)

Tell me its inhibition of SARS-CoV-2 cytopathic effect given CCCCCCC[N+](CC)(CC)CCCCc1ccc(Cl)cc1 [clofilium] as the entry.
1.44% (inactive)

Tell me its inhibition of SARS-CoV-2 cytopathic effect given C[N+]1(C)CCC(OC(=O)C(O)(c2ccccc2)C2CCCC2)C1 (stereo not drawn) [glycopyrrolate] as the entry.
-1.27% (inactive)

Tell me its inhibition of SARS-CoV-2 cytopathic effect given c1ccc2c(c1)Sc1ccccc1N2C[C@H]1CN2CCC1CC2 [levomequitazine] as the entry.
-6.41% (inactive)

Tell me its inhibition of SARS-CoV-2 cytopathic effect given Cc1sc(C)c2c1CCC=C2c1c[nH]cn1 as the entry.
-1.35% (inactive)

Tell me its inhibition of SARS-CoV-2 cytopathic effect given CCCc1nc(C)c2c(=O)nc(-c3cc(S(=O)(=O)N4CCN(CC)CC4)ccc3OCC)[nH]n12 [vardenafil] as the entry.
-1.02% (inactive)

Tell me its inhibition of SARS-CoV-2 cytopathic effect given N[C@@H]1CCCCN(c2c(F)cc3c(=O)c(C(=O)O)cn(C4CC4)c3c2Cl)C1 [besifloxacin] as the entry.
1.39% (inactive)

Tell me its inhibition of SARS-CoV-2 cytopathic effect given CCC(Cc1c(I)cc(I)c(N)c1I)C(=O)O (stereo not drawn) [iopanic-acid] as the entry.
2.89% (inactive)

Tell me its inhibition of SARS-CoV-2 cytopathic effect given COc1ccccc1CC(=N)N1C[C@@H]2C(=O)CCC(c3ccccc3)(c3ccccc3)[C@@H]2C1 as the entry.
2.21% (inactive)

Tell me its inhibition of SARS-CoV-2 cytopathic effect given Cn1cnc2c(F)c(Nc3ccc(Br)cc3F)c(C(=O)NOCCO)cc21 [binimetinib] as the entry.
-3.38% (inactive)

Tell me its inhibition of SARS-CoV-2 cytopathic effect given C=C(C)[C@@H]1CC=C(CO)CC1 [perillyl-alcohol] as the entry.
-3.02% (inactive)

Tell me its inhibition of SARS-CoV-2 cytopathic effect given O=C(OCCN1CCOCC1)c1cccnc1Nc1cccc(C(F)(F)F)c1 [morniflumate] as the entry.
-3.25% (inactive)

Tell me its inhibition of SARS-CoV-2 cytopathic effect given COc1ccc2cc(OCC3(C(=O)O)CN(C(=O)c4ccc(F)cc4)C3)ccc2c1 as the entry.
0% (inactive)

Tell me its inhibition of SARS-CoV-2 cytopathic effect given Nc1ccc(F)cc1NC(=O)c1ccc(CNC(=O)/C=C/c2cccnc2)cc1 [chidamide] as the entry.
0.21% (inactive)

Tell me its inhibition of SARS-CoV-2 cytopathic effect given CC(=O)OCC(=O)[C@@]1(O)CC[C@H]2[C@@H]3CCC4=CC(=O)C=C[C@]4(C)[C@H]3[C@@H](O)C[C@@]21C [prednisolone-acetate] as the entry.
0.57% (inactive)

Tell me its inhibition of SARS-CoV-2 cytopathic effect given CCCC(=O)O [sodium-butyrate] as the entry.
-0.1% (inactive)

Data provenance is the supplement of paper PMC13380429.
